# assay.target: SUMO-conjugating enzyme UBC9 (Homo sapiens) (UniProt P63279)
# Sequence (P63279 whole entry, looked up): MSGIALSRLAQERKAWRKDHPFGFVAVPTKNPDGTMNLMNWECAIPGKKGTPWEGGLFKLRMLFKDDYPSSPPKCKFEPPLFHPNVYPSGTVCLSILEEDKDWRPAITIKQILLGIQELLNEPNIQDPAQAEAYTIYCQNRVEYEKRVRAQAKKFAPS
# test.name: SUMO conjugation blockers under BSA conditions – biochemical, AlphaScreen, BSA present, SUMOylation inhibitor project, SAR follow-up (AID 485391)
# measurement.context: AlphaScreen SUMOylation assay with BSA
Calls of active or inactive are those of the source. No rule for the calls is given here.
Outcome codes: active, inactive

molecule=COC(=O)C=C(NC(CO)(CO)CO)C(=O)OC assay_target="SUMO-conjugating enzyme UBC9 (Homo sapiens) (UniProt P63279)" category=inactive
molecule="COc1ccc(CN2C(=O)C(NC(C)=O)c3ccccc32)cc1 (stereo not given)" assay_target="SUMO-conjugating enzyme UBC9 (Homo sapiens) (UniProt P63279)" category=inactive
molecule=CCCCn1c(NC(=O)CC)c(S(=O)(=O)c2ccc(C)cc2)c2nc3ccccc3nc21 assay_target="SUMO-conjugating enzyme UBC9 (Homo sapiens) (UniProt P63279)" category=active
molecule="COC(=O)[C@@H]1C2CCC([C@@H](Cc3ccccc3)Nc3ccccc3)(O2)[C@@H]1C(=O)OC (stereo not given in full)" assay_target="SUMO-conjugating enzyme UBC9 (Homo sapiens) (UniProt P63279)" category=inactive
molecule=CCCCn1c(N)c(S(=O)(=O)c2ccc(C)cc2)c2nc3ccccc3nc21 assay_target="SUMO-conjugating enzyme UBC9 (Homo sapiens) (UniProt P63279)" category=inactive
molecule=CCC(=O)Nc1c(S(=O)(=O)c2ccccc2)c2nc3ccccc3nc2n1Cc1ccccc1 assay_target="SUMO-conjugating enzyme UBC9 (Homo sapiens) (UniProt P63279)" category=inactive
molecule="COC(=O)C1=C(C(=O)OC)C2([C@@H](Cc3ccccc3)Nc3ccc(OC)cc3)C=CC1O2 (stereo not given in full)" assay_target="SUMO-conjugating enzyme UBC9 (Homo sapiens) (UniProt P63279)" category=active
molecule=CCCCn1c(NC(=O)c2ccccc2Cl)c(S(=O)(=O)c2ccccc2)c2nc3ccccc3nc21 assay_target="SUMO-conjugating enzyme UBC9 (Homo sapiens) (UniProt P63279)" category=active
molecule="COc1ccc2c(c1)C(NC(C)=O)C(=O)N2CCOc1ccccc1 (stereo not given)" assay_target="SUMO-conjugating enzyme UBC9 (Homo sapiens) (UniProt P63279)" category=inactive
molecule="COC(=O)C1=C(C(=O)OC)C2([C@H](C)Nc3ccc(Cl)cc3)C=CC1O2 (stereo not given in full)" assay_target="SUMO-conjugating enzyme UBC9 (Homo sapiens) (UniProt P63279)" category=active
molecule=COCCNC(=O)c1c(NC(=O)c2ccccc2)n(Cc2ccccc2)c2nc3ccccc3nc12 assay_target="SUMO-conjugating enzyme UBC9 (Homo sapiens) (UniProt P63279)" category=inactive
molecule="COC(=O)C1=C(C(=O)OC)C2([C@H](Cc3ccccc3)Nc3ccc(Cl)cc3)C=CC1O2 (stereo not given in full)" assay_target="SUMO-conjugating enzyme UBC9 (Homo sapiens) (UniProt P63279)" category=active
molecule=CCCCn1c(NC(C)=O)c(C#N)c2nc3ccccc3nc21 assay_target="SUMO-conjugating enzyme UBC9 (Homo sapiens) (UniProt P63279)" category=inactive
molecule=CCCCn1c(NC(=O)C2CCCCC2)c(C#N)c2nc3ccccc3nc21 assay_target="SUMO-conjugating enzyme UBC9 (Homo sapiens) (UniProt P63279)" category=active
molecule=CCCC1=NN(c2ccc(C(=O)O)cc2)C(=O)/C1=C/c1ccc(OCc2ccccc2)c(OC)c1 assay_target="SUMO-conjugating enzyme UBC9 (Homo sapiens) (UniProt P63279)" category=active
molecule="c1ccc(CC(Nc2ccccc2)c2ccco2)cc1 (stereo not given)" assay_target="SUMO-conjugating enzyme UBC9 (Homo sapiens) (UniProt P63279)" category=inactive
molecule=CCCCn1c(NS(=O)(=O)c2ccccc2)c(S(=O)(=O)c2ccc(C)cc2)c2nc3ccccc3nc21 assay_target="SUMO-conjugating enzyme UBC9 (Homo sapiens) (UniProt P63279)" category=active
molecule="C=CC[C@H](Nc1ccc(Cl)cc1)C12C=CC(O1)C(C(=O)OC)=C2C(=O)OC (stereo not given in full)" assay_target="SUMO-conjugating enzyme UBC9 (Homo sapiens) (UniProt P63279)" category=active
molecule=CCCCn1c(NC(=O)c2ccc(OC)cc2)c(S(=O)(=O)c2ccc(C)cc2)c2nc3ccccc3nc21 assay_target="SUMO-conjugating enzyme UBC9 (Homo sapiens) (UniProt P63279)" category=active
molecule="C=CC[C@@H](N(Cc1ccccc1)/C(=C\\C(=O)OC)C(=O)OC)C12C=CC(O1)C(C(=O)OC)=C2C(=O)OC (stereo not given in full)" assay_target="SUMO-conjugating enzyme UBC9 (Homo sapiens) (UniProt P63279)" category=active

====

Below: a set of entries, each annotated with reported IC50.
# assay.target: SUMO-conjugating enzyme UBC9 (Homo sapiens) (UniProt P63279)
# test.name: SUMO conjugation blockers under BSA conditions – biochemical, AlphaScreen, BSA present, SUMOylation inhibitor project, SAR follow-up (AID 485391)
# measurement.context: AlphaScreen SUMOylation assay with BSA
Calls of active or inactive are those of the source. How the calls were made is not given here.
result.type: IC50

compound="C=CC[C@@H](Nc1ccc(Cl)cc1)C12C=CC(O1)C(C(=O)OC)=C2C(=O)OC (some centres not stated)" recorded_value="12.5 µM"
compound="COC(=O)C1=C(C(=O)OC)C2([C@H](C)Nc3ccccc3)C=CC1O2 (some centres not stated)" recorded_value="24.9 µM"
compound="C=C[C@@H](Nc1ccccc1)C12C=CC(O1)C(C(=O)OC)=C2C(=O)OC (some centres not stated)" recorded_value="7.16 µM"
compound="C=CCC(c1ccco1)N(Cc1ccccc1)/C(=C/C(=O)OC)C(=O)OC (configuration not stated)" recorded_value="> 100 µM (inactive)"
compound="COC(=O)C1=C(C(=O)O)C2C=CC1([C@@H](Cc1ccccc1)Nc1ccccc1)O2 (some centres not stated)" recorded_value="5.17 µM"
compound=C=CCn1c(NS(=O)(=O)c2ccccc2)c(S(=O)(=O)c2ccc(C)cc2)c2nc3ccccc3nc21 recorded_value="28.4 µM"
compound="COC(=O)C1=C(C(=O)OC)C2(C(Cc3ccc(OC(F)(F)F)cc3)Nc3ccccc3)C=CC1O2 (configuration not stated)" recorded_value="0.803 µM"
